Value source: the supplement of paper PMC10567573

B1: TNXB (parent)
chain: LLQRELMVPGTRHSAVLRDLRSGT

- Variants of: B1
- assay_text: protein stability index of a GFP-peptide fusion (GPS, HEK-293T) (PSI 1-6); higher = more stable;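 note: lentivirally expressed fusions sorted by FACS into six bins by GFP to DsRed ratio, PSI derived from sequencing read proportions per bin multiplied by bin number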
- experimental_setup: c terminus: a fixed tail appended
Reported protein stability index values for the following variants.
observed_property: protein stability index

- mut: "G23R"
  observed_property: "protein stability index"
  result: 2.72
- mut: "R4V"
  observed_property: "protein stability index"
  result: 1.81
- mut: "V8Q"
  observed_property: "protein stability index"
  result: 2.22
- mut: "P9C"
  observed_property: "protein stability index"
  result: 2
- mut: "T24W"
  observed_property: "protein stability index"
  result: 1.84
- mut: "L6S"
  observed_property: "protein stability index"
  result: 3.1
- mut: "R4E"
  observed_property: "protein stability index"
  result: 2.65
- mut: "R21G"
  observed_property: "protein stability index"
  result: 2.43
- mut: "L1I"
  observed_property: "protein stability index"
  result: 2.47
- mut: "S22M"
  observed_property: "protein stability index"
  result: 2.19
- mut: "A15D"
  observed_property: "protein stability index"
  result: 2.29
- mut: "T11S"
  observed_property: "protein stability index"
  result: 2.5
- mut: "T11P"
  observed_property: "protein stability index"
  result: 2.51
- mut: "T11I"
  observed_property: "protein stability index"
  result: 2.38
- mut: "A15F"
  observed_property: "protein stability index"
  result: 1.98
- mut: "L20R"
  observed_property: "protein stability index"
  result: 2.86
- mut: "P9W"
  observed_property: "protein stability index"
  result: 1.68
- mut: "H13M"
  observed_property: "protein stability index"
  result: 2.25
- mut: "M7V"
  observed_property: "protein stability index"
  result: 2.67
- mut: "R12G"
  observed_property: "protein stability index"
  result: 3.09
- mut: "S22G"
  observed_property: "protein stability index"
  result: 2.12
- mut: "T24F"
  observed_property: "protein stability index"
  result: 2.13
- mut: "S22T"
  observed_property: "protein stability index"
  result: 2.39
- mut: "P9D"
  observed_property: "protein stability index"
  result: 2.69
- mut: "R21N"
  observed_property: "protein stability index"
  result: 2.34
- mut: "R4Y"
  observed_property: "protein stability index"
  result: 2.37
- mut: "D19H"
  observed_property: "protein stability index"
  result: 2.26
- mut: "Q3F"
  observed_property: "protein stability index"
  result: 2.59
- mut: "G23W"
  observed_property: "protein stability index"
  result: 2.09
- mut: "L20K"
  observed_property: "protein stability index"
  result: 3.02
- mut: "R18M"
  observed_property: "protein stability index"
  result: 2.12
- mut: "D19A"
  observed_property: "protein stability index"
  result: 2.27
- mut: "E5F"
  observed_property: "protein stability index"
  result: 1.18
- mut: "D19K"
  observed_property: "protein stability index"
  result: 2.07
- mut: "R12M"
  observed_property: "protein stability index"
  result: 1.85
- mut: "A15I"
  observed_property: "protein stability index"
  result: 2.26
- mut: "R4N"
  observed_property: "protein stability index"
  result: 2.86
- mut: "R12C"
  observed_property: "protein stability index"
  result: 1.94
- mut: "L20W"
  observed_property: "protein stability index"
  result: 2.3
- mut: "G10A"
  observed_property: "protein stability index"
  result: 2.39
- mut: "Q3E"
  observed_property: "protein stability index"
  result: 3.52
- mut: "R4Q"
  observed_property: "protein stability index"
  result: 2.46
- mut: "V8N"
  observed_property: "protein stability index"
  result: 2.59
- mut: "L6W"
  observed_property: "protein stability index"
  result: 2.52
- mut: "S22E"
  observed_property: "protein stability index"
  result: 2.41
- mut: "A15L"
  observed_property: "protein stability index"
  result: 2.14
- mut: "A15V"
  observed_property: "protein stability index"
  result: 1.95
- mut: "G23Q"
  observed_property: "protein stability index"
  result: 3.73
- mut: "R18H"
  observed_property: "protein stability index"
  result: 2.86
- mut: "L1N"
  observed_property: "protein stability index"
  result: 3.54
- mut: "M7I"
  observed_property: "protein stability index"
  result: 2.44
- mut: "R4D"
  observed_property: "protein stability index"
  result: 3.44
- mut: "L17M"
  observed_property: "protein stability index"
  result: 3.05
- mut: "L20Y"
  observed_property: "protein stability index"
  result: 2.27
- mut: "G10P"
  observed_property: "protein stability index"
  result: 2.54
- mut: "R21W"
  observed_property: "protein stability index"
  result: 2.75
- mut: "L20Q"
  observed_property: "protein stability index"
  result: 2.89
- mut: "S14L"
  observed_property: "protein stability index"
  result: 1.61
- mut: "R4F"
  observed_property: "protein stability index"
  result: 1.72
- mut: "A15T"
  observed_property: "protein stability index"
  result: 2.18
- mut: "R21C"
  observed_property: "protein stability index"
  result: 2.06
- mut: "R12T"
  observed_property: "protein stability index"
  result: 2.27
- mut: "A15Q"
  observed_property: "protein stability index"
  result: 1.97
- mut: "G23C"
  observed_property: "protein stability index"
  result: 2.36
- mut: "T24S"
  observed_property: "protein stability index"
  result: 2.2
- mut: "L1S"
  observed_property: "protein stability index"
  result: 3.2
- mut: "A15H"
  observed_property: "protein stability index"
  result: 2.41
- mut: "L6F"
  observed_property: "protein stability index"
  result: 2.74
- mut: "Q3D"
  observed_property: "protein stability index"
  result: 3.4
- mut: "G23Y"
  observed_property: "protein stability index"
  result: 2.14
- mut: "T11G"
  observed_property: "protein stability index"
  result: 3.21
- mut: "P9M"
  observed_property: "protein stability index"
  result: 2.1
- mut: "T24H"
  observed_property: "protein stability index"
  result: 2.13
- mut: "R4S"
  observed_property: "protein stability index"
  result: 2.42
- mut: "L2P"
  observed_property: "protein stability index"
  result: 3.71
- mut: "R18I"
  observed_property: "protein stability index"
  result: 2.21
- mut: "L17I"
  observed_property: "protein stability index"
  result: 2.81
- mut: "P9R"
  observed_property: "protein stability index"
  result: 2.21
- mut: "S22A"
  observed_property: "protein stability index"
  result: 2.32
- mut: "R12I"
  observed_property: "protein stability index"
  result: 2.47
- mut: "H13Y"
  observed_property: "protein stability index"
  result: 2.15
- mut: "L17F"
  observed_property: "protein stability index"
  result: 2.23
- mut: "G10W"
  observed_property: "protein stability index"
  result: 1.72
- mut: "A15G"
  observed_property: "protein stability index"
  result: 2.34
- mut: "L1M"
  observed_property: "protein stability index"
  result: 2.73
- mut: "G10H"
  observed_property: "protein stability index"
  result: 2.19
- mut: "S14N"
  observed_property: "protein stability index"
  result: 2.88
- mut: "R18F"
  observed_property: "protein stability index"
  result: 2.02
- mut: "G10L"
  observed_property: "protein stability index"
  result: 1.35
- mut: "H13K"
  observed_property: "protein stability index"
  result: 2.09
- mut: "R21M"
  observed_property: "protein stability index"
  result: 1.99
